# ASSAY TARGET: human CaSR (Homo sapiens, UniProt P41180, E1011Q)
# Sequence (P41180 20-1078 E1011Q): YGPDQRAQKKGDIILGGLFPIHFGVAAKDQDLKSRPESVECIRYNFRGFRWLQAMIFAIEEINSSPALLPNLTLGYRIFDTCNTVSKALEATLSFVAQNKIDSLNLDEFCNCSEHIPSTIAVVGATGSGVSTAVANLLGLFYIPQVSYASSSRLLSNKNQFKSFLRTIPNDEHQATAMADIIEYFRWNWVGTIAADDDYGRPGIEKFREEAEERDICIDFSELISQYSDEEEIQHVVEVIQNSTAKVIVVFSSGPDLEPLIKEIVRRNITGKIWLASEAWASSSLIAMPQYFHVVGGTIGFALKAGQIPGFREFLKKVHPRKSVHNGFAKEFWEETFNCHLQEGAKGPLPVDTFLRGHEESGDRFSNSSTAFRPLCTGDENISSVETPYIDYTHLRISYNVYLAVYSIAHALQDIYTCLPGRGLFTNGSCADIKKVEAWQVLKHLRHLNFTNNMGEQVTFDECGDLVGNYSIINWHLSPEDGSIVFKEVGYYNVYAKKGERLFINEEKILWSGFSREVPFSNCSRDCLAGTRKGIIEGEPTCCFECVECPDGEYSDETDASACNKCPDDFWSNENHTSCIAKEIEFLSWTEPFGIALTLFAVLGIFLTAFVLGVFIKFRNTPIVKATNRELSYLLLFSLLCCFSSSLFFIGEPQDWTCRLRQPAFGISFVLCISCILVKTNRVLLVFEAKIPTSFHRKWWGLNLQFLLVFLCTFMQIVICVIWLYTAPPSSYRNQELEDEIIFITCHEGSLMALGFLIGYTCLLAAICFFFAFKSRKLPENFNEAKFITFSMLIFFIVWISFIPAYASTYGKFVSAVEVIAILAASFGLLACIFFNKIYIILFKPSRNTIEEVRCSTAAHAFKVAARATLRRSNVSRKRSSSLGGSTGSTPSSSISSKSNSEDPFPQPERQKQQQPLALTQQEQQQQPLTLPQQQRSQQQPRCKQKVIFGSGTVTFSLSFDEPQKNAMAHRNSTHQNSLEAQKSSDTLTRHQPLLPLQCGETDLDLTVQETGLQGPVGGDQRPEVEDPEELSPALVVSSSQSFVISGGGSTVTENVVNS
# ASSAY OVERVIEW: Evaluation of CaSR agonist activity (Ca2+ fluorescence, hCaSR-transfected 293E cells)
# TEST PARAMETERS: 293E cells transfected with hCaSR/pcDNA3.1, Calcium 4 fluorescence, FLEX Station
EC50 under 3 µM gets Y, anything at or over 3 µM gets N.

**Query** Is EC50 of C[C@H](NC(=O)CC[C@H](N)C(=O)O)C(=O)O [γ-Glu-Ala] strictly below 3 µM?
**Result** Y

**Query** # TODO verify EC50 < 3 µM strictly for this compound: N[C@@H](CCC(=O)N[C@@H](CO)C(=O)O)C(=O)O [γ-Glu-Ser]
**Result** N

**Query** Lab note: confirm whether the reported EC50 for this compound is below 3 µM, equality not counting. compound: CC(C)(NC(=O)CC[C@H](N)C(=O)O)C(=O)O [γ-Glu-Aib]
**Result** N

**Query** Just wondering, is EC50 of `CC[C@H](NC(=O)CC[C@H](N)C(=O)O)C(=O)O` below 3 µM?
**Result** Y

**Query** Lab log: compare recorded EC50 with 3 µM; is it strictly lower for N[C@@H](CCC(=O)N[C@@H](CS)C(=O)O)C(=O)O [γ-Glu-Cys] ?
**Result** Y

**Query** State whether 3 µM exceeds EC50 recorded for C[C@@H](O)[C@H](NC(=O)CC[C@H](N)C(=O)O)C(=O)O [γ-Glu-Thr] .
**Result** N

**Query** For CC(C)[C@H](NC(=O)CC[C@H](N)C(=O)O)C(=O)O [γ-Glu-Val] , is the recorded EC50 below the cut-off of 3 µM?
**Result** Y

**Query** State whether 3 µM exceeds EC50 recorded for CCCC[C@H](NC(=O)CC[C@H](N)C(=O)O)C(=O)O [γ-Glu-Nle, γ-L-glutamyl-L-norleucine] .
**Result** N

**Query** Check if EC50 falls below 3 µM for CCC[C@H](NC(=O)CC[C@H](N)C(=O)O)C(=O)O [γ-Glu-Nva, γ-L-glutamyl-L-norvaline] .
**Result** Y

Source listed as patent US8541379B2.
